- TARGET: human DGKζ (Homo sapiens)
- Construct: TVMV protease cleavage site (C); Hexa-His (C); made in house; host or cells: Sf9 insect cells (baculovirus, Bac-to-Bac)
- Sequence (Q13574 with tags, fused parts or gaps isoform Q13574-4): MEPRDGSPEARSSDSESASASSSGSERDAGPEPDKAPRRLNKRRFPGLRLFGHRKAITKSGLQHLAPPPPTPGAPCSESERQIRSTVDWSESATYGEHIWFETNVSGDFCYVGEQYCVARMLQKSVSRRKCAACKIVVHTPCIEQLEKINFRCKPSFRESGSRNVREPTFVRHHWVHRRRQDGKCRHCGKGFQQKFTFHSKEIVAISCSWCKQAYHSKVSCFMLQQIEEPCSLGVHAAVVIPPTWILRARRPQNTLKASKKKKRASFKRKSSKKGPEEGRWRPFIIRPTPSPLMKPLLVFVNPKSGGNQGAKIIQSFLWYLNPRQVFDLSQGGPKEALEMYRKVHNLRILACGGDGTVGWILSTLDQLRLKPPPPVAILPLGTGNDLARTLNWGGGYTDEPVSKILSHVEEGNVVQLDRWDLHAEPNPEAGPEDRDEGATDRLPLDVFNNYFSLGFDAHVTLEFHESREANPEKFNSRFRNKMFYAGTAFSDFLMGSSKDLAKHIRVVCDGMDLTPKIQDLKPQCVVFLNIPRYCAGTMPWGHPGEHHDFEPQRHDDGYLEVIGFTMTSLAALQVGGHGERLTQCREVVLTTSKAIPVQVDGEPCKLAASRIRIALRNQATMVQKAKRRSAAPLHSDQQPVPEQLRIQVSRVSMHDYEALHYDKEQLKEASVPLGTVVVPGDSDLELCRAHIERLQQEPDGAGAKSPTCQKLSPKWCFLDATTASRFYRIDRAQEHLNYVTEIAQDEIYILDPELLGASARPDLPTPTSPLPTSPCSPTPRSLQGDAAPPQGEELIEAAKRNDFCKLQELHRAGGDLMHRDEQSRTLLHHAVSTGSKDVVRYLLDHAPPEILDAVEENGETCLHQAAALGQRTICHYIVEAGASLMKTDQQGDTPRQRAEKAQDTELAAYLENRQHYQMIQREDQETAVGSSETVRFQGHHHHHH
- ASSAY_DETAILS: DGKζ LIPGLO assay (extruded liposome substrate), in vitro DGK inhibition
- Type: biochemical
- MEASUREMENT_CONDITIONS: liposome (LIPGLO) assay; read-out: DGKz LIPGLO IC50
ENDPOINT_NAME: IC50 (nM)

Worked examples, 5 compounds total:
COMPOUND: CC(c1ccc2nccnc2c1)N1C[C@H](C)N(c2cc(=O)n(C)c3ccc(C#N)nc23)C[C@H]1C (single isomer, unassigned) [Example 650]
IC50 [nM]: 11
--
COMPOUND: Cc1nc2c(C(C)N3C[C@H](C)N(c4cc(=O)n(C)c5ccc(C#N)nc45)C[C@H]3C)cccc2o1 (single isomer, unassigned) [Example 1260]
IC50 [nM]: 86
--
COMPOUND: Cc1nc(C(F)(F)F)ccc1CN1C[C@H](C)N(c2cc(=O)n(C)c3ccc(C#N)nc23)C[C@H]1C
IC50 [nM]: 4600
--
COMPOUND: COC[C@@H]1CN(c2cc(=O)n(C)c3ccc(C#N)nc23)[C@@H](C)CN1C(C)c1ccc(OC(F)(F)F)cc1 (single isomer, unassigned) [Example 1162]
IC50 [nM]: 550
--
COMPOUND: C[C@@H]1CN(c2cc(=O)n(C)c3ccc(C#N)nc23)[C@@H](C)CN1C(c1ccc(F)cc1)c1ccccc1N1CCOCC1 (single isomer, unassigned) [Example 664]
IC50 [nM]: 4500

a = CC[C@@H]1CN(c2cc(=O)n(C)c3ccc(C#N)nc23)[C@@H](C)CN1C(c1ccc(Cl)cc1)c1ccc(F)cn1 (stereo partly drawn) [Example 1111]
b = C[C@@H]1CN(c2cc(=O)n(C)c3ccc(C#N)nc23)[C@@H](C)CN1C(c1ccc(F)cc1)C(F)(F)F (single isomer, unassigned) [Example 582]
c = CC(c1ccc(OC(F)(F)F)cc1)N1C[C@H](C)N(c2cc(=O)n(C)c3ccc(C#N)nc23)C[C@H]1CN(C)C (stereo partly drawn) [Example 1413]
d = CC[C@H]1CN(C(C)c2ccc(OC)cc2)[C@H](CC)CN1c1cc(=O)n(C)c2ccc(C#N)nc12 (single isomer, unassigned) [Example 1367]
e = CC(C)OC(=O)C1CN(c2cc(=O)n(C)c3ccc(C#N)nc23)CCN1C(c1ccc(F)cc1)c1ccc(F)cc1 (single isomer, unassigned) [Example 62]
Request: Hello, I need these entries ordered by IC50, highest reading first. Thanks! A ranking is expressed here by listing the labels in the requested order.
Response: e, b, d, c, a

A = C[C@@H]1CN(c2cc(=O)n(C)c3ccc(C#N)nc23)[C@@H](C)CN1C(c1ccc(F)cc1)c1ccc(C#N)cc1 (single isomer, unassigned) [Example 307]
B = C[C@@H]1CN(c2cc(=O)n(C)c3ccc(C#N)nc23)[C@@H](C)CN1Cc1c(F)cccc1C#N
Request: Sort A and B by IC50 descending and give the first. Answer by stating the label of the chosen item.
Response: B

* * *

- TARGET: human DGKζ (Homo sapiens)
- Construct: TVMV protease cleavage site (C); Hexa-His (C); made in house; host or cells: Sf9 insect cells (baculovirus, Bac-to-Bac)
- ASSAY_DETAILS: DGKζ LIPGLO assay (extruded liposome substrate), in vitro DGK inhibition
- Format: biochemical
- MEASUREMENT_CONDITIONS: liposome (LIPGLO) assay; read-out: DGKz LIPGLO IC50
ENDPOINT_NAME: IC50 (µM)

MOLECULE: CC[C@H]1CN(C(C)c2ccc(C3CC3)cc2)[C@H](CC)CN1c1cc(=O)n(C)c2ccc(C#N)nc12 (single isomer, unassigned) [Example 1356]
ENDPOINT_NAME: IC50
RECORDED_NUMBER: 3.4
//
MOLECULE: Cc1ccc(C(c2ccc(Cl)cc2)N2C[C@H](C)N(c3cc(=O)n(C)c4ccc(C#N)nc34)C[C@H]2C)cc1 (stereo partly drawn) [Example 299]
ENDPOINT_NAME: IC50
RECORDED_NUMBER: 1.1
//
MOLECULE: CC(c1cccc(OC(F)(F)F)c1F)N1C[C@H](C)N(c2cc(=O)n(C)c3ccc(C#N)nc23)C[C@H]1C (single isomer, unassigned) [Example 1209]
ENDPOINT_NAME: IC50
RECORDED_NUMBER: 1.2

1 = COCc1cc(F)ccc1C(C)N1C[C@H](C)N(c2cc(=O)n(C)c3ccc(C#N)nc23)C[C@H]1C (single isomer, unassigned) [Example 1314]
2 = CC[C@@H]1CN(c2cc(=O)n(C)c3ccc(C#N)nc23)[C@@H](C)CN1C(C)c1ccc(OC)cc1 (single isomer, unassigned) [Example 482]
Request: Sort 1 and 2 by IC50 descending and give the first. Answer by stating the label of the chosen item.
Response: 2
